target system: pre-existing anti-scFv903 antibodies in human serum H53 (human)
protocol text: competition ADA bridging ELISA
signal change in competition ELISA (% reduction in OD) for assorted binders
Unit % implied. Number only.

# example entries with known answers
| binder | test value |
| --- | --- |
| scFv 961 (scFv) scFv: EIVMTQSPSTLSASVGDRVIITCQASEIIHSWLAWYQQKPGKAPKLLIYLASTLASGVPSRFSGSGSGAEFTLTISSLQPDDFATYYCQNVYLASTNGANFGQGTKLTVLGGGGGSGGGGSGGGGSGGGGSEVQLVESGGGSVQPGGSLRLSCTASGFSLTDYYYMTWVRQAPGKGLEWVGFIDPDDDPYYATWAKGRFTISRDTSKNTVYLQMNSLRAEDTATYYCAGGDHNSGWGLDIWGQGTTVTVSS | -31 |
| scFv105 (scFv) scFv: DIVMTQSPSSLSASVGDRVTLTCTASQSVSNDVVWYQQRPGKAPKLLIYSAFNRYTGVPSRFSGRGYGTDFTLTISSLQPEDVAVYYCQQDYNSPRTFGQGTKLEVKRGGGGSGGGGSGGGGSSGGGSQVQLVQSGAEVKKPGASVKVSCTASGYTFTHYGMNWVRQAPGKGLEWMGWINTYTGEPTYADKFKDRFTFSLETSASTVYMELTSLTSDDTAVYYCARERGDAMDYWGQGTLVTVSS | -18 |
| scFv 903 (scFv) scFv: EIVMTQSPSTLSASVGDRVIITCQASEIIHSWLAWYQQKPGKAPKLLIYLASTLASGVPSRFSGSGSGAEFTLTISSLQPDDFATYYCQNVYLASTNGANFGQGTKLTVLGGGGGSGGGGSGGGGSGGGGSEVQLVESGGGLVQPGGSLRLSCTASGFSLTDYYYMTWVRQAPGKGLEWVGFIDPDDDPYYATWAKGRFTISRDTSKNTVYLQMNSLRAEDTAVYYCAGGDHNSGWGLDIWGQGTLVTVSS | -32 |

Now turn to the next binder.
The reported value for scFv 791 (scFv) scFv: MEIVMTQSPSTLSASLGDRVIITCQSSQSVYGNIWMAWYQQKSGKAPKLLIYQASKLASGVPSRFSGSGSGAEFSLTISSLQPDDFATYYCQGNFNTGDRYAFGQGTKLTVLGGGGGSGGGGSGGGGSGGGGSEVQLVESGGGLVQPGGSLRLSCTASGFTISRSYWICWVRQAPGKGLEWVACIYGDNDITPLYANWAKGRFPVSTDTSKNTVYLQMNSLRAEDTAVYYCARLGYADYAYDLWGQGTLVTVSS in terms of signal change in competition ELISA (% reduction in OD) is -35

Origin of values: patent US20210214461A1
